Tested on: ULK3
experimental.setup: concentration: 1 μM,replicates: in singlicate; n = 1;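 also: KINOMEscan kinase panel screen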
class 1 if %Inh is below 20%. class 0 if not; exact matches included in class 0.

Worked set:
[[record]]
compound = "Cc1ccc(CC(=O)N2CCc3cc(-c4cn(C)c5ncnc(N)c45)ccc32)cc1"
category_label = "class 1"

[[record]]
compound = "COc1cc2c(Nc3ccc(NC(=O)c4ccccc4)cc3)ncnc2cc1OCCCN1CCOCC1"
category_label = "class 1"

[[record]]
compound = "O=C1NCCc2[nH]c(-c3ccncc3)cc21"
category_label = "class 1"

[[record]]
compound = "Cl.c1ccc(Oc2ccc(Nc3ccnc4cc(-c5ccc(CN6CCNCC6)o5)ccc34)cc2)nc1"
category_label = "class 1"

[[record]]
compound = "CCN1CCN(CCCC(=O)Nc2n[nH]c3nc(-c4ccc(O)cc4)c(Br)cc23)CC1"
category_label = "class 1"

[[record]]
compound = "Cc1ccc(Nc2ccnc(Nc3ccc4c(c3)CS(=O)(=O)C4)n2)cc1O.Cl"
category_label = "class 0"

[[record]]
compound = "CC(C)c1nc(-c2cccc(NS(=O)(=O)c3ccccc3)c2)c(-c2ccnc(Nc3ccc4c(c3)CN(C)CC4)n2)s1"
category_label = "class 0"

[[record]]
compound = "O=C(NCC1CC1)c1ccc(-c2cc(C(=O)NC3CC3)ccc2F)cc1"
category_label = "class 1"

[[record]]
compound = "Cn1ccc2ncnc(Oc3ccc(NC(=O)Nc4cccc(C(F)(F)F)c4)c(Cl)c3)c21"
category_label = "class 1"

[[record]]
compound = "CS(=O)(=O)c1cccc(CNc2nc(Nc3ccc4c(c3)[C@@H]3C[C@@H]4CNC3=O)ncc2C(F)(F)F)c1"
category_label = "class 0"


-- ask Find out if reported %Inh for COc1ccc(Nc2nccc(N3CCC(NC(=O)c4cccc(C#N)c4)C3)n2)cc1 (stereo not drawn) is less than 20%
-- reply class 1

-- ask Find out if reported %Inh for `O=c1[nH]cc(-c2ccc(O)cc2)c2sc(-c3ccncc3)cc12` is less than 20%
-- reply class 1

-- ask Find out if reported %Inh for `COc1cccc(C2=C(Nc3cccc(Cl)c3)C(=O)NC2=O)c1` is less than 20%
-- reply class 1

-- ask Find out if reported %Inh for `Cc1cccc(-c2nc(Nc3ccncc3)c3sccc3n2)n1` is less than 20%
-- reply class 0

-- ask Find out if reported %Inh for `CC(C)S(=O)(=O)N1CCN(Cc2ccc3c(c2)nc(NC(=O)c2ccsc2)n3C[C@H](O)c2ccccc2)CC1` is less than 20%
-- reply class 0

###

System: PFTK1
Construct: gene CDK14
experimental.setup: concentration: 1 μM,replicates: in singlicate; n = 1
T if %Inh is below 10%. F if not; exact matches included in F.

Worked set:
[[record]]
molecule = "CSc1nccc(-c2c(-c3ccc(F)cc3)ncn2CCCN2CCOCC2)n1.Cl"
category_label = "T"

[[record]]
molecule = "Cc1nnc(-c2ccc3occ(-c4ccc(S(C)=O)cc4)c3n2)o1 (centres unmarked)"
category_label = "T"

[[record]]
molecule = "CS(=O)(=O)c1cccc(CNc2nc(Nc3ccc4c(c3)[C@@H]3C[C@@H]4CNC3=O)ncc2C(F)(F)F)c1"
category_label = "T"

[[record]]
molecule = "CC(C(=O)NC1CCN(c2ccnc(Nc3ccc(F)cc3)n2)C1)c1ccc(Cl)cc1 (centres unmarked)"
category_label = "T"

[[record]]
molecule = "Cc1ccc(C(=O)Nc2ccc(Oc3ccc4nc(NC(=O)C5CC5)cn4c3)c(F)c2)c(=O)n1-c1ccccc1"
category_label = "T"

[[record]]
molecule = "Cl.c1ccc(Oc2ccc(Nc3ccnc4cc(-c5ccc(CN6CCNCC6)o5)ccc34)cc2)nc1"
category_label = "F"

[[record]]
molecule = "CN(c1ccc2c(c1)nc(NCc1ccc(F)cc1)n2C)c1ccnc(Nc2ccc(CS(C)(=O)=O)cc2)n1.Cl"
category_label = "T"

[[record]]
molecule = "Cc1cccc(-c2nc(Nc3ccncc3)c3sccc3n2)n1"
category_label = "T"


-- ask Find out if reported %Inh for `O=C(Nc1ccc(Oc2ccc3nc(NC(=O)C4CC4)cn3n2)c(F)c1)c1cccn(-c2ccccc2)c1=O` is less than 10%
-- reply T

-- ask Find out if reported %Inh for `O=C(NOCC1CC1)c1cc(Br)c(F)c(F)c1Nc1ccc(I)cc1Cl` is less than 10%
-- reply T

-- ask Find out if reported %Inh for COC(=O)c1cccc(NC(=O)NC2CCN(c3ccnc(Nc4cc(OC)c(OC)c(OC)c4)n3)C2)c1 (centres unmarked) is less than 10%
-- reply F

-- ask Find out if reported %Inh for `Cc1ccc(CC(=O)N2CCc3cc(-c4cn(C)c5ncnc(N)c45)ccc32)cc1` is less than 10%
-- reply F

-- ask Find out if reported %Inh for `COc1cc2nccc(Nc3ccc(Oc4ccccc4)cc3)c2cc1OC.Cl` is less than 10%
-- reply T

-- ask Find out if reported %Inh for `C[C@@H](Oc1cc(-n2cnc3ccc(-c4ccncc4)cc32)sc1C(N)=O)c1ccccc1Cl` is less than 10%
-- reply F

-- ask Find out if reported %Inh for `c1ccc(Oc2ccc(Nc3ccnc4ccc(-c5ccccn5)cc34)cc2)cc1` is less than 10%
-- reply F

-- ask Find out if reported %Inh for COc1cccc(CNC(=O)NC2CCN(c3ccnc(Nc4cc(OC)c(OC)c(OC)c4)n3)C2)c1 (centres unmarked) is less than 10%
-- reply F

-- ask Find out if reported %Inh for `O=C1NCCc2[nH]c(-c3ccncc3)cc21` is less than 10%
-- reply T
